Assay info: Half life in Sprague-Dawley rat at 1 mg/kg, iv and 4 mg/kg, po
Format: ADME, organism-based
Experimental setup: in vivo
Endpoint label: half-life (h)
Give bare numbers, in h.

// known answers, use as guide
• CCN(CC)CC(C1CCCCC1)N1CCN(C(=O)[C@@H]2CN(C(C)(C)C)C[C@H]2c2ccc(F)cc2F)CC1 (some centres undefined) = 34
• CC(C)N(CC(C1CCCCC1)N1CCN(C(=O)[C@@H]2CN(C(C)(C)C)C[C@H]2c2ccc(F)cc2F)CC1)S(C)(=O)=O (single isomer, unassigned; diastereomer 2) = 2.7
• CC(C)N(CC(C1CCCCC1)N1CCN(C(=O)[C@@H]2CN(C(C)(C)C)C[C@H]2c2ccc(F)cc2F)CC1)C(=O)c1ncccn1 (single isomer, unassigned; diastereomer 1) = 1.8

Query: Please give measured half-life of the following entry: CC(=O)N(CC(C1CCCCC1)N1CCN(C(=O)[C@@H]2CN(C(C)(C)C)C[C@H]2c2ccc(F)cc2F)CC1)C(C)C (stereo in doubt; 19B)
Response: 2.2

###

Tgt: Melanocortin receptor 4 (Homo sapiens, UniProt P32245)
Sequence (P32245 whole entry): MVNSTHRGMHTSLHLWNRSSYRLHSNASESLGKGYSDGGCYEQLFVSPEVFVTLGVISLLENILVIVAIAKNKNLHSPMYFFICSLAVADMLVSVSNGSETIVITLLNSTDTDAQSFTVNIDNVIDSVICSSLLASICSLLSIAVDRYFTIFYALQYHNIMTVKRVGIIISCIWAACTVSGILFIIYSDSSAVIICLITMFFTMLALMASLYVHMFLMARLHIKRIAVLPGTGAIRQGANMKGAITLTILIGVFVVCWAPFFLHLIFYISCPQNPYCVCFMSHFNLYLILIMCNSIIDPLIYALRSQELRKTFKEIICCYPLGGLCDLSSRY
Assay info: Agonist activity at human MC4 receptor expressed in CHO cells assessed as increase of alpha-MSH-induced cAMP accumulation
Assay type: functional, cell-based
Experimental setup: cho
Endpoint label: pEC50
Answers are plain numbers, as −log10 of the molar value.

Query: Please give measured pEC50 of the following entry: CC(=O)N(CC(N1CCN(C(=O)[C@@H]2CN(C(C)(C)C)C[C@H]2c2ccc(F)cc2F)CC1)C(C)(C)C)C(C)C (single isomer, unassigned; diastereomer 1)
Response: 6.74

###

Assay info: Volume of distribution at steady state in Sprague-Dawley rat at 1 mg/kg, iv and 4 mg/kg, po
Format: ADME, organism-based
Experimental setup: in vivo, read-out: Vdss
For each entry below, report its Vd value.
Numbers only, in L/kg.

• CCN(CC)CC(C1CCCCC1)N1CCN(C(=O)[C@@H]2CN(C(C)(C)C)C[C@H]2c2ccc(F)cc2F)CC1 (some centres undefined) = 19

I would be grateful if you could provide Vd for each of the following entries.
1. CC(C)N(CC(C1CCCCC1)N1CCN(C(=O)[C@@H]2CN(C(C)(C)C)C[C@H]2c2ccc(F)cc2F)CC1)C(=O)c1ncccn1 (single isomer, unassigned; diastereomer 1)
2. CC(=O)N(CC(C1CCCCC1)N1CCN(C(=O)[C@@H]2CN(C(C)(C)C)C[C@H]2c2ccc(F)cc2F)CC1)C(C)C (stereo in doubt; 19B)
3. CC(C)N(CC(C1CCCCC1)N1CCN(C(=O)[C@@H]2CN(C(C)(C)C)C[C@H]2c2ccc(F)cc2F)CC1)S(C)(=O)=O (single isomer, unassigned; diastereomer 2)

Response:
1: 3.8; 2: 6.8; 3: 6

###

Tgt: UniProtKB P41968
Sequence (P41968 whole entry): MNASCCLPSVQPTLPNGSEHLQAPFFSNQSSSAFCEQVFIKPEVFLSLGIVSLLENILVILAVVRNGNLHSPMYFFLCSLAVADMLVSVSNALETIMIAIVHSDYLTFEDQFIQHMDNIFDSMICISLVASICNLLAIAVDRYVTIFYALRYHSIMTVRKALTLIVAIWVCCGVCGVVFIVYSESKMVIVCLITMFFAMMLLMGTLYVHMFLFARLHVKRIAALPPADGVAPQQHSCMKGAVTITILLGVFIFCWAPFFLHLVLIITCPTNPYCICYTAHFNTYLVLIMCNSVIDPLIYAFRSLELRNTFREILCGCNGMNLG
Assay info: Agonist activity at human MC3 receptor expressed in CHO cells assessed as increase of alpha-MSH-induced cAMP accumulation at 10 uM relative to alpha-MSH
Type: functional, cell-based
For each entry below, report its Activity value.
One number for each entry, in %.

// known answers, use as guide
* CC(C)N(CC(C1CCCCC1)N1CCN(C(=O)[C@@H]2CN(C(C)(C)C)C[C@H]2c2ccc(F)cc2F)CC1)S(C)(=O)=O (single isomer, unassigned; diastereomer 2) | 94
* CC(=O)N(CC(C1CCCCC1)N1CCN(C(=O)[C@@H]2CN(C(C)(C)C)C[C@H]2c2ccc(F)cc2F)CC1)C(C)C (stereo in doubt; 19B) | 81

Shifting focus to the molecule that follows.
Query: Please give measured Activity of the following entry: CC(C)CC(CN(C(C)C)S(C)(=O)=O)N1CCN(C(=O)[C@@H]2CN(C(C)(C)C)C[C@H]2c2ccc(F)cc2F)CC1 (single isomer, unassigned; diastereomer 2)
Response: 87
